Every entry's value here was drawn from ChEMBL document CHEMBL1201862.

- SYSTEM TESTED: Corticotropin-releasing factor receptor 2/Corticotropin-releasing factor-binding protein (Homo sapiens, UniProt P24387+Q13324)
- Sequence (Q13324 whole entry): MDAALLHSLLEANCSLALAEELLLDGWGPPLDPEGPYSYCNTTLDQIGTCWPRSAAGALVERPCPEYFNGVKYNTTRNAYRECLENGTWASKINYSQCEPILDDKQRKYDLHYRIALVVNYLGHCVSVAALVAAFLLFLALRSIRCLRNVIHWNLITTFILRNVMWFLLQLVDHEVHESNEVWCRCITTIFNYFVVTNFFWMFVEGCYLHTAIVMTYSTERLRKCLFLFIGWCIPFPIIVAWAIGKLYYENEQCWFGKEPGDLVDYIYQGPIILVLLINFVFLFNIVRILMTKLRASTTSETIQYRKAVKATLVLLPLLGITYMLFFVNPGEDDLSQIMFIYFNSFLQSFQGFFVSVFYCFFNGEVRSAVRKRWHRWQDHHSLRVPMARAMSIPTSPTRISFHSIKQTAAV
- Sequence (P24387 whole entry): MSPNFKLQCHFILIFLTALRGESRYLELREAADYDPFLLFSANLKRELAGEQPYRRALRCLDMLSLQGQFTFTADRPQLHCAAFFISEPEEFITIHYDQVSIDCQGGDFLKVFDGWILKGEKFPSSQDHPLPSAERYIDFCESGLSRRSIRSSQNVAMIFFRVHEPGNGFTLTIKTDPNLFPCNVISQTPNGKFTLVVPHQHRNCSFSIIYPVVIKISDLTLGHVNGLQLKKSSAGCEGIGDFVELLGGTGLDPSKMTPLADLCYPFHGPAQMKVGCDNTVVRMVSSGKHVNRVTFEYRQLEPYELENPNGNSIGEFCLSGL
- EXPERIMENT NOTES: activators of CRF receptor 2 with binding protein – uHTS hits, confirmation (AID 602473)
- Format: functional
- DETAILS: read-out: EC50_Mean
Active and inactive are the calls of the source.
Outcomes you can answer with include only these: 1.0 (active), 0.0 (inactive)

Below, 6 compounds whose answers are already recorded.
| COMPOUND | QUALITATIVE LABEL |
| --- | --- |
| CCn1c(SCC(=O)N2CCCCC2)nc2c(c1=O)SCC2 | 0.0 |
| Cc1ccn(C(=O)c2ccc(NC(=O)C3CCCCC3)cc2)n1 | 0.0 |
| Cc1ccc(C(=O)NC(=S)NNC(=O)c2ccc([N+](=O)[O-])cc2)cc1 | 1.0 |
| N#C/C(=C(/O)COC(=O)c1ccccc1O)c1nc2ccccc2s1 | 0.0 |
| CCOC(=O)C1(CC2CCCCO2)CCN(Cc2cc3ccccc3[nH]2)CC1 (configuration not stated) | 1.0 |
| CC(C)c1ccc(/C=N/NC(=O)c2cc(-c3cccc([N+](=O)[O-])c3)[nH]n2)cc1 | 0.0 |

Consider now this further compound.
INPUT: Please state the recorded outcome for this compound: CSCCC(NC(=O)c1ccco1)C(=O)OC(C)C(=O)NC(=O)NC1CCCCC1 (configuration not stated)
OUTPUT: 1.0

====

- SYSTEM TESTED: Induced myeloid leukemia cell differentiation protein Mcl-1 (Homo sapiens)
- Sequence (Q07820 whole entry): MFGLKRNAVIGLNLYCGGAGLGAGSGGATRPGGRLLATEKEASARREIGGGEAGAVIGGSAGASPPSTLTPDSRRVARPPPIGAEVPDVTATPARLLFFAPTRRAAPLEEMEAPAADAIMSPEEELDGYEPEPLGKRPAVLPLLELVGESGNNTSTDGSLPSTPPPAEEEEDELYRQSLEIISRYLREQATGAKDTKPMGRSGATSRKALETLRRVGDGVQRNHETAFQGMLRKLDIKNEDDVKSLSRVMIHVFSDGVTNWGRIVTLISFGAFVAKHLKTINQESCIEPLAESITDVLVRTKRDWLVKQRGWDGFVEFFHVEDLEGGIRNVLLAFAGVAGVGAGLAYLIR
- Format: functional
Activity calls are given as the source filed them.
MEASURED QUANTITY: IC50

Before answering, review these 3 worked examples.
| COMPOUND | IC50 |
| --- | --- |
| NC(=S)n1[nH]c(-c2ccc([N+](=O)[O-])cc2)c(/N=N/c2ccccc2[N+](=O)[O-])c1=O | 23.2 µM (active) |
| CSc1nc(N(C)CCO)c2sc3nc(-c4ccco4)c4c(c3c2n1)CCC4 | 5.59 µM (active) |
| CC(C)(O)C#Cc1ccc(CN2CCN(C3CCCCC3)C(CCO)C2)cc1 (centres undefined) | 21.2 µM (not active) |

INPUT: I would be grateful if you could share the reported IC50 for CCN(CC)C(=O)CC(c1cc(OC)c(OC)c(OC)c1)c1c(OC)cc(OC)c2c(-c3ccccc3)cc(=O)oc12 (centres undefined) .
OUTPUT: 5.26 µM (active)

====

- SYSTEM TESTED: Calpain-2 catalytic subunit (Sus scrofa, UniProt P43367)
- Sequence (P43367 whole entry): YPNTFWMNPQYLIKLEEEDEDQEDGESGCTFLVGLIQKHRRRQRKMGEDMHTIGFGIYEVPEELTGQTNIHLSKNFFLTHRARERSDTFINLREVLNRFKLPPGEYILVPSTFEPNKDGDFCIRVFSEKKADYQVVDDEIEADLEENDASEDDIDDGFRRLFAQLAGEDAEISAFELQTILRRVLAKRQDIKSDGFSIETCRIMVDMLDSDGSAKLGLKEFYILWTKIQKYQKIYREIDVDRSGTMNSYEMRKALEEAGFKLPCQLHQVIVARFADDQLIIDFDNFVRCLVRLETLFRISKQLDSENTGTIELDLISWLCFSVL
- EXPERIMENT NOTES: m-calpain protease blockers, concentration series – biochemical, fluorogenic peptide substrate, dose response (AID 1420)
- Assay type: functional
MEASURED QUANTITY: IC50

The following compounds have reported results that may help.
| COMPOUND | IC50 |
| --- | --- |
| CCCc1nc(SCC(=O)N2CCCc3ccccc32)c2c(=O)n(C)c(=O)n(C)c2n1 | 16.7 µM (not active) |
| FC(F)(F)c1cccc(NCc2nnc(S)n2C2CCCCC2)c1 | 27.8 µM (not active) |
| CCOc1ccc(Oc2ccc(-c3nnc(-c4ccccc4)o3)cc2[N+](=O)[O-])cc1 | 4.33 µM (not active) |

// below: IC50 requested for another compound
INPUT: # input compound: Cn1nnnc1SCC(=O)NC1CCCCC1 ; wanted: its IC50
OUTPUT: < 0.4 µM (not active)

====

- SYSTEM TESTED: Glucose-6-phosphate 1-dehydrogenase (Homo sapiens)
- Sequence (P11413 whole entry): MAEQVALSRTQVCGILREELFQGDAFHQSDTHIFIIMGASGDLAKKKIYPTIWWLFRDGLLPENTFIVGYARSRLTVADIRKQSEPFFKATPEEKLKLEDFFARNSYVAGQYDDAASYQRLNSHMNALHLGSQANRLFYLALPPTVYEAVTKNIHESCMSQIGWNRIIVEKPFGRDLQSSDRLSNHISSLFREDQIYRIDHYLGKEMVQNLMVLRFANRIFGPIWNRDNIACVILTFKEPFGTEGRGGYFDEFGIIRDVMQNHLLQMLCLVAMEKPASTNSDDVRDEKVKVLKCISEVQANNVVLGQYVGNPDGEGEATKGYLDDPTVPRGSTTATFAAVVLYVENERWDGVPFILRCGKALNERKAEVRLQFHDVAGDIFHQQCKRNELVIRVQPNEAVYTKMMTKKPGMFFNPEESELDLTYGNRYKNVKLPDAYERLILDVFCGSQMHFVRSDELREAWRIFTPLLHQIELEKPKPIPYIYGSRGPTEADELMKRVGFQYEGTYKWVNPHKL
- EXPERIMENT NOTES: inhibition of Homo sapiens G6PD, dose series – biochemical, fluorescence, selectivity assay for P. falciparum G6PD inhibitor project, dose response (AID 504792)
- Assay type: functional
Calls of active or inactive are those of the source.
The reply should be one of these categories: active, inactive

| CPD SMILES | QUALITATIVE LABEL |
| --- | --- |
| COCCNC(=S)Nc1ccc(N2CCOCC2)c(S(=O)(=O)Nc2ccc(Cl)cc2)c1 | inactive |
| CNc1nc(-c2ccccc2)[n+](-c2ccc(C)cc2)s1 | active |
| Cc1ccc(C)c(-n2sc3ccc(F)cc3c2=O)c1 | active |

Query molecule follows.
INPUT: Kindly provide the recorded test outcome for the following molecule: COc1cc(/N=C/c2c(CO)cnc(C)c2O)cc(OC)c1OC
OUTPUT: inactive

====

# IC50 listing for each entry below
- SYSTEM TESTED: Orexin/Hypocretin receptor type 1 (Homo sapiens, UniProt O43613)
- Sequence (O43613 whole entry): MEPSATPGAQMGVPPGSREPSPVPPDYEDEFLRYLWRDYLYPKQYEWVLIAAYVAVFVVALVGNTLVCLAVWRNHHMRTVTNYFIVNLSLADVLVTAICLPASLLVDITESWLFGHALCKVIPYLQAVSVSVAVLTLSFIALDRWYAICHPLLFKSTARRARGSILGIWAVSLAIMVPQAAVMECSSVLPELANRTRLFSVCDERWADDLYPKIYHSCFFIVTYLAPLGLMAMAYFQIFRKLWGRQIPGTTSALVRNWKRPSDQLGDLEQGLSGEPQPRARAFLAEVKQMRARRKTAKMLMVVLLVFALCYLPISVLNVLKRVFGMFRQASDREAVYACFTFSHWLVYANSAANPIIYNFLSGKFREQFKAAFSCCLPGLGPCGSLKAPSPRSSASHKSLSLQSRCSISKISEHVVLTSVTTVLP
- EXPERIMENT NOTES: Fluorescence-based cell-based high throughput dose response assay for antagonists of the orexin 1 receptor (OX1R; HCRTR1). [Related pubchem assays (depositor defined):AID434989, AID435008, AID463079, AID485270, AID492963, AID492964, AID492965, AID493232, AID504717, AID504718]
- Assay type: functional
Calls of active or inactive are those of the source.

Recorded IC50, per entry:
| CPD SMILES | MEASURED QUANTITY | RESULT |
| --- | --- | --- |
| Cc1nn(-c2ccccc2)c(C)c1/C=N/NC(=O)c1cc(-c2cccs2)[nH]n1 | IC50 | 3990 nM (active) |
| COC(=O)c1ccccc1NC(=O)c1sc(=S)n(C)c1N | IC50 | 1410 nM (active) |
| Cc1c(C(=O)Nc2ccc(N3CCOCC3)cc2)oc2ccccc12 | IC50 | 1460 nM (active) |

Pending compound:
INPUT: So what's the measured IC50 for this one? O=C(N/N=C/c1c(Cl)[nH]c2ccccc12)c1sc2ccccc2c1Cl
OUTPUT: 3230 nM (active)

====

- EXPERIMENT NOTES: Luminescence Cell-Based Dose Retest to Confirm Inhibitors of Cancer Stem Cells. [Related pubchem assays (depositor defined):AID2717, AID2721]
- Type: functional
- DETAILS: Homo sapiens
Calls of active or inactive are those of the source.
We begin with a simple list: items and their reported AC50.

| MOLECULE | RESULT |
| --- | --- |
| Cc1cccc(C(=O)NNC2=C(C(=O)C(F)(F)F)CCC2)c1O | 3.16 µM (active) |

INPUT: Recorded AC50 of c1ccc2c(Nc3nc(-c4ccncc4)nc4ccccc34)cccc2c1 , please.
OUTPUT: 18.7 µM (active)

INPUT: What about this molecule? CCCCCc1cc(=O)oc2c(C(CCN3CCCC(C)C3)c3ccc4c(c3)OCO4)c(OC)cc(OC)c12 (stereo not given)
OUTPUT: 6.14 µM (active)

INPUT: Now the molecule CCCCn1cnc2c(c(-c3ccccc3)c(-c3ccccc3)n2Cc2ccco2)c1=N
OUTPUT: 49.8 µM (active)

INPUT: Same question, NC(=O)CC(NC(=O)Cc1ccc(Br)cc1)c1ccc(NC2CCCCCC2)c([N+](=O)[O-])c1 (stereo not given) this time
OUTPUT: 4.61 µM (active)

====

Below are AC50 values recorded for Cytochrome P450 3A4 (Homo sapiens, UniProt P08684).

The examples below pair each entry with its known result.
| COMPOUND | AC50 |
| --- | --- |
| C/C(CCN1CCc2nc(-c3ccccc3)c(-c3ccccc3)cc2C1)=N\O[C@@H](C)CN1CCCc2nc(C)c(C)cc21 | 3.98 µM (inconclusive) |
| C[C@@]1(C(=O)O)NCCc2cc(O)c(O)cc21 | 31.6 µM (inconclusive) |

INPUT: # query: AC50 of entry c1csc(CNc2cc(-c3ccoc3)ncn2)c1
OUTPUT: 25.1 µM (inconclusive)

INPUT: Item: C#CCCCO/N=C1/[C@H]2O[C@@H]2[C@@H](O)[C@H]2[C@H]1CCn1c(=O)n([C@@H](CC)c3ccccc3)c(=O)n12
OUTPUT: 3.98 µM (inconclusive)

INPUT: Same read-out for O=C(CNC(=O)c1ccco1)OC(C(=O)c1ccccc1)c1ccccc1 (stereo not given) ?
OUTPUT: 28.2 µM (inconclusive)

INPUT: And then Clc1ccc(C2=CCC[C@H]3CC[C@@H]2N3)cn1 , what is it?
OUTPUT: 39.8 µM (inconclusive)

INPUT: Lookup O=S(=O)(NCc1cc(-c2ccc(Cl)cc2)no1)c1ccc(Cl)cc1
OUTPUT: 25.1 µM (inconclusive)

INPUT: Queued: CCNc1ncc2nc(-c3ccc(OC)cc3)c(=O)n(Cc3cccc(OC)c3)c2n1
OUTPUT: 25.1 µM (inconclusive)

INPUT: And for Ic1ccc(N2CCN(Cc3c[nH]c4ncccc34)CC2)cc1 ?
OUTPUT: 39.8 µM (inconclusive)

INPUT: Same thing, different compound: CC(C)(C)c1ccc(NS(=O)(=O)c2ccc(N)cc2)cc1
OUTPUT: 1 µM (inconclusive)

====

- EXPERIMENT NOTES: viability of HCT116 lacking mutant beta-catenin – cell-based, human colon tumor, dose response (AID 1045);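 note: HCT116 colon tumor cells with beta catenin knocked out; cells exposed to compound for 60 hours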
- Type: functional
Activity calls are given as the source filed them.
Item-by-item account of EC50

Consider the worked cases shown below.
| MOLECULE | MEASURED QUANTITY | RESULT |
| --- | --- | --- |
| Cc1ccc(C)c(N2CCN(CCCNC(=O)Cn3cc4c(n3)CCCCC4)CC2)c1 | EC50 | 11.8 µM (active) |
| CC(=O)Nc1cccc(C(=O)/C=C/c2cccs2)c1 | EC50 | 7.79 µM (active) |

INPUT: I am curious: what EC50 value has been reported for N=c1n(Cc2ccccc2)c2ccccc2n1CC(O)COc1ccccc1 (centres undefined) ?
OUTPUT: 6.96 µM (active)

INPUT: Consider next the molecule COc1cc(C(=O)Nc2nc(-c3ccc(Cl)cc3)c(C)s2)ccc1OCC(=O)Nc1ccc(F)cc1 in the same way.
OUTPUT: 1.46 µM (active)
